Biological target: T1, human CRHR1 (corticotropin releasing hormone receptor-1) (human, UniProt P34998 24-415)
T1 sequence (looked up): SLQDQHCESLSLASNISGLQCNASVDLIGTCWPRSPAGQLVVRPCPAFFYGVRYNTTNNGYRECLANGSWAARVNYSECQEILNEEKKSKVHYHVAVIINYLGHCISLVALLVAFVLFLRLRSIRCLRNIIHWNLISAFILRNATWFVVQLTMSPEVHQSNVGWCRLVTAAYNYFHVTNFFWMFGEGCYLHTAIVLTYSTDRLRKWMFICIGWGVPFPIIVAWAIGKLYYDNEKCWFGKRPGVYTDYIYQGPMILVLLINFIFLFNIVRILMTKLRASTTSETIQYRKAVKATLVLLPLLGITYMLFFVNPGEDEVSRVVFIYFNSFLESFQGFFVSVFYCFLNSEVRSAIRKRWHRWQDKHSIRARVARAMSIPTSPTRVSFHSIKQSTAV
Experiment: cell-based or functional assay
Starred links: 1 amine or outer side, 2 acyl side, 3 side chain; linkers in the order of their positions; H or OH if unused. Non-standard residues stand in square brackets, D forms with d. Groups on a side chain read outwards from the residue. No end group written: not given here. *: point of attachment. C20 diacid = O=C(O)CCCCCCCCCCCCCCCCCCC(=O)*; γGlu = O=C(O)[C@H](CCC(=O)[*:2])N[*:1]; NMeI = CC[C@H](C)[C@H](NC)C(=O)O; AEEA = NCCOCCOCC(=O)O
observation.type: Average EC50 (nM), cell-based cAMP assay, Y79 cells with endogenous human CRHR1

[
  {
    "binder": "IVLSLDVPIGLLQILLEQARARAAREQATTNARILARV-NH2 (ligand) [human UCN2 (urocortin-2)]",
    "result": "> 100000 nM"
  },
  {
    "binder": "[NMeI]VTSLDVPIGLLQILLEQEKQEKEKQQAK([AEEA-AEEA-γGlu-γGlu-C20 diacid])TNAEILAQV-NH2 [Example 5 (SEQ ID NO: 5)]",
    "result": "33900 nM"
  },
  {
    "binder": "Ac-IVLSLDVPIGLLQILLEQEKQEKEKQQAK([AEEA-AEEA-γGlu-γGlu-C20 diacid])TNAQILAQV-NH2 [Example 2 (SEQ ID NO: 2)]",
    "result": "> 10000 nM"
  },
  {
    "binder": "[NMeI]VLSLDVPIGLLQILLEQEKQEKEKQQAK([AEEA-AEEA-γGlu-γGlu-C20 diacid])TNAQILAQV-NH2 [Example 4 (SEQ ID NO: 4)]",
    "result": "> 100000 nM"
  }
]
